- TESTED TARGET: human ether-à-go-go-related gene (hERG) potassium channel (human, UniProt Q12809);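 also: peak tail current of the secondary pulse compared with the same well before compound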
- Sequence (Q12809 whole entry, looked up): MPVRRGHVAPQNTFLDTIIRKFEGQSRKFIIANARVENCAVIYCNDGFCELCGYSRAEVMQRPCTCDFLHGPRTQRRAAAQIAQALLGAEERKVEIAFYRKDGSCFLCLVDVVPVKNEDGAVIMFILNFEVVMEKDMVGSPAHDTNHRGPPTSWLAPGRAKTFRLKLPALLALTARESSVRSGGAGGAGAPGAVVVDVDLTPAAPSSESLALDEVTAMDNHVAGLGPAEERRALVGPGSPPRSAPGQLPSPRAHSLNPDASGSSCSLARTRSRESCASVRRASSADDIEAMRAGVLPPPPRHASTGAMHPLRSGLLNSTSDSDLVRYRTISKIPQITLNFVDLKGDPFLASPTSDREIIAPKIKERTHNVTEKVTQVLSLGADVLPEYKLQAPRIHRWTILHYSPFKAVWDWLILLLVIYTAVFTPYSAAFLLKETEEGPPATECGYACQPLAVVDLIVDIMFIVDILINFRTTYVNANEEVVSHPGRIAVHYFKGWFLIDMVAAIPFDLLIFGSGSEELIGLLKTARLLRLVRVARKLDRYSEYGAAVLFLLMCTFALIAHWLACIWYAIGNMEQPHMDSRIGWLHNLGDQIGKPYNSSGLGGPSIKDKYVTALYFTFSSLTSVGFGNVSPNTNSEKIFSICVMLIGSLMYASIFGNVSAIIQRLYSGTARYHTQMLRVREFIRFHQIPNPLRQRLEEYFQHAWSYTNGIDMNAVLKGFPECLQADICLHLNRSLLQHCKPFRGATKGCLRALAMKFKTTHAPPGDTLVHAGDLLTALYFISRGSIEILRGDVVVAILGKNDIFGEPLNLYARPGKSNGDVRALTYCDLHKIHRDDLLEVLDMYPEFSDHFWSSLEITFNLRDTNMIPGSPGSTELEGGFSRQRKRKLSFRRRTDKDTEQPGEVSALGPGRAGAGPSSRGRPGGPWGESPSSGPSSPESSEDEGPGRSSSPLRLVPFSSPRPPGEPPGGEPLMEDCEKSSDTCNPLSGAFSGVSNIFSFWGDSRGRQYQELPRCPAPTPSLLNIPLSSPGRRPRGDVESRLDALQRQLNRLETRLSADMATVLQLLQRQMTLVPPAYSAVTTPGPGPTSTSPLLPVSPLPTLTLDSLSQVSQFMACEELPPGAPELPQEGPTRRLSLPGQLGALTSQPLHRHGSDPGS
- PROTOCOL DESCRIPTION: primary screen, population patch clamp on CHO cells stably expressing hERG; higher = less effect of the substance
Among all 310,000 compounds or so, about 14,000 (4.5%) showed an effect of 50% or more. Effects have a minus sign here. This is one part of a sample in which strong results are shown more often than they occur.
Each entry below carries its recorded hERG current change (%, negative = inhibition) at 10uM.
Could you give the number and then its unit, please?

Sample records with hERG current change (%, negative = inhibition) at 10uM:
Cc1nc2c3cc(F)ccc3n(Cc3ccc(F)cc3)c2s1 13.8%
CCN(CC)CCn1c2ccc(Cl)cc2c2nc(C)sc21.Cl -68.2%
OC1(c2ccc(Cl)cc2)CCN(Cc2cn[nH]c2-c2ccccc2)CC1 -77.7%
C=CCn1c(SCC(=O)Nc2cccc3ccccc23)nc(O)c(CC)c1=O 3.7%

Below: the item to evaluate.
Which hERG current change (%, negative = inhibition) at 10uM reading was recorded for the molecule CCN(Cc1cc2ccccc2[nH]c1=O)C(=O)C1CCCCC1 ?
-13.3%
